# ASSAYED SYSTEM: Sodium-dependent dopamine transporter (Rattus norvegicus)
# Sequence (P23977 whole entry): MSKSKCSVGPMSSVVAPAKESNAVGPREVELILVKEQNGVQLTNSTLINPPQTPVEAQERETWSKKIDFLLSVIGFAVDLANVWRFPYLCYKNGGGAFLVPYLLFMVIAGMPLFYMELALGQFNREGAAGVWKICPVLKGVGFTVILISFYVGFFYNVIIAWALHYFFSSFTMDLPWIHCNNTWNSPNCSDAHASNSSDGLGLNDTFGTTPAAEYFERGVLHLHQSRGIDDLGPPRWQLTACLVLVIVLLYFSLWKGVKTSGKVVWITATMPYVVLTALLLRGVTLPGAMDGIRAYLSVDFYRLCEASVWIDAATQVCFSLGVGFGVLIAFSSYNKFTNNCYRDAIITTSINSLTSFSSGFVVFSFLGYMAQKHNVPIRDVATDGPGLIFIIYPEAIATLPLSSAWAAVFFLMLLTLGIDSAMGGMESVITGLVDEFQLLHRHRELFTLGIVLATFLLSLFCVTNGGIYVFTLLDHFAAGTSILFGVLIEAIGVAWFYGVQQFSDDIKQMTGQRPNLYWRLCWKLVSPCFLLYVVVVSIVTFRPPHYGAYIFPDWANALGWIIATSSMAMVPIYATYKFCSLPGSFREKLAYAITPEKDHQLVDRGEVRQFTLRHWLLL
# ASSAY NAME: Inhibition of uptake of dopamine (DA) rat brain striatum
PROPERTY NAME: IC50 (µM)
Give bare numbers, in µM.

>  <COMPOUND>
Oc1ccc2[nH]cc(CCC3CCNCC3)c2c1

>  <IC50, µM>
2.7

$$$$
>  <COMPOUND>
CN1CCC(CCc2c[nH]c3ccccc23)CC1

>  <IC50, µM>
6.5

$$$$
>  <COMPOUND>
CN(C)CCCN1c2ccccc2CCc2ccc(Cl)cc21

>  <IC50, µM>
1

$$$$

// input: 4 molecules below; output: IC50 for each
1. c1ccc2c(CCC3CCNCC3)c[nH]c2c1
2. c1ccc2c(CCCC3CCNCC3)c[nH]c2c1
3. Cc1[nH]c2ccccc2c1CCC1CCNCC1
4. O=C(O)/C=C/C(=O)O.c1ccc(-n2cc(CCC3CCNCC3)c3ccccc32)cc1

## Result
[18, 3, 23, 20]

---

# Test system: Mus musculus
# ASSAY NAME: Compound was tested for potentiation of 5-HTP in mouse after subcutaneous administration
# Type: functional
# CONDITION INFO: sc
# note: exactly 10 mg/kg is not below, so it is Not satisfied; use Satisfied for ED50 strictly under it

Example cases with answers are listed next.
>  <MOLECULE>
c1ccc2c(CCCC3CCNCC3)c[nH]c2c1

>  <LABEL CLASS>
Satisfied

$$$$
>  <MOLECULE>
Fc1ccc2[nH]cc(CC3CCNCC3)c2c1

>  <LABEL CLASS>
Not satisfied

$$$$
>  <MOLECULE>
c1ccc2c(CCC3CCNCC3)c[nH]c2c1 [INDALPINE]

>  <LABEL CLASS>
Satisfied

$$$$

Shift focus to the following entry.
## Task Please indicate whether the reported ED50 of CN(C)CCCN1c2ccccc2CCc2ccc(Cl)cc21 [CLOMIPRAMINE] is strictly below 10 mg/kg.
## Result Satisfied

---

# ASSAYED SYSTEM: Sodium-dependent serotonin transporter (Rattus norvegicus, UniProt P31652)
# Sequence (P31652 whole entry): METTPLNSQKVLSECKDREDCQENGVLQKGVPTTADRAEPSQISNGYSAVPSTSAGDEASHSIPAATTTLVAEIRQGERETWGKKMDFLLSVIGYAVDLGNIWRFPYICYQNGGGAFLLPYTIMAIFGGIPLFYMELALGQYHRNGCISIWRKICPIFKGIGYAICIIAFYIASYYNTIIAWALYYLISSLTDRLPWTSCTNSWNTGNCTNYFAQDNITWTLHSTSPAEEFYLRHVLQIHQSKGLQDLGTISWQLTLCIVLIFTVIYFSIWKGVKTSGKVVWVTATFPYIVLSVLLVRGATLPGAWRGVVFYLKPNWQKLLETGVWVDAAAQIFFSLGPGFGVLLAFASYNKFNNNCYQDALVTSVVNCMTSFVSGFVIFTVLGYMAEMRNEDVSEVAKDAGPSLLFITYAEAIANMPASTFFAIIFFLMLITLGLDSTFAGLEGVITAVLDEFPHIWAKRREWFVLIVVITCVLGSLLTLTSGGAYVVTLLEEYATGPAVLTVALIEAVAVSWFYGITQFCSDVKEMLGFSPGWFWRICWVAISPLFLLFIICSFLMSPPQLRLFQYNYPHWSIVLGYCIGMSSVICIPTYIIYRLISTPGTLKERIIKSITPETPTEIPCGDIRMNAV
# ASSAY NAME: Inhibition of uptake of 5-HT in rat brain cortex
# Type: functional, tissue-based
PROPERTY NAME: IC50 (nM)
Give bare numbers, in nM.

>  <COMPOUND>
Brc1ccc2[nH]cc(CC3CCNCC3)c2c1

>  <UNITS>
nM

>  <IC50>
700

$$$$

// input: 7 compounds below; output: IC50 for each
1. COc1ccc2[nH]cc(CC3CCNCC3)c2c1
2. c1ccc(-c2[nH]c3ccccc3c2CCC2CCNCC2)cc1
3. COc1ccc2[nH]cc(CCC3CCNCC3)c2c1
4. Oc1ccc2c(CCC3CCNCC3)c[nH]c2c1
5. c1ccc2c(CCCC3CCNCC3)c[nH]c2c1
6. Cc1[nH]c2ccccc2c1CCC1CCNCC1
7. CN1CCC(CCc2cn(C)c3ccccc23)CC1

## Result
[1000, 2200, 140, 1500, 40, 2500, 1700]

// input: 7 compounds below; output: IC50 for each
1. CN1CCC(CCc2c[nH]c3ccccc23)CC1
2. Oc1ccc2[nH]cc(CCC3CCNCC3)c2c1
3. c1ccc(Cn2cc(CCC3CCNCC3)c3ccccc32)cc1
4. Clc1ccc2[nH]cc(CC3CCNCC3)c2c1
5. c1ccc2c(CCC3CCNCC3)c[nH]c2c1
6. c1ccc2c(CC3CCNCC3)c[nH]c2c1
7. Clc1ccc2[nH]cc(CCC3CCNCC3)c2c1

## Result
[450, 600, 1900, 700, 10, 50, 130]

// input: 2 compounds below; output: IC50 for each
1. Cn1cc(CCC2CCNCC2)c2ccccc21
2. O=C(O)/C=C/C(=O)O.c1ccc(-n2cc(CCC3CCNCC3)c3ccccc32)cc1

## Result
1. 400
2. 1000

src = ChEMBL document CHEMBL1121570
